Attribution: patent US20240262795A1

I'd appreciate it if you could supply pIC50 values for the items below.
Tested on: MOLM-13
Assay: Proliferation inhibition, CellTiter-Glo, MOLM-13
Format: cell-based, human
Conditions: Homo sapiens, 96 h; MOLM-13 cells, IC50 (4 days), CellTiter-Glo; read-out: MOLM-13 IC50
pIC50: −log10 of the molar value.

| smiles.notation | pIC50 |
| --- | --- |
| CCc1nc(C(N)=O)c(Nc2ccnc(CCNC(=O)[C@H](C)N(C)C(=O)/C=C/CN(C)C)c2)nc1C1CC1 | 8.00 to 9.00 |

Hi team, please reply with pIC50 for each item in this list.
1. CCc1nc(C(N)=O)c(Nc2cccc([C@@H](C)CNC(=O)CN(C)C(=O)/C=C/CN3CCC3)c2)nc1C(C)C
2. CCCc1nc(Nc2cccc([C@@H](C)CNC(=O)CN(C)C(=O)/C=C/CN3CCC3)c2)c(C(N)=O)nc1CC
3. CCc1nc(C(N)=O)c(Nc2cccc(CCNC(=O)[C@H](C)NC(=O)/C=C/CN(C)C)c2)nc1NC(C)C
4. CCc1nc(Nc2cccc(CCNC(=O)[C@H](C)N(C)C(=O)/C=C/CN(C)C)c2)c(C(N)=O)nc1C
5. CCc1cc(C(N)=O)c(Nc2cccc(CCNC(=O)[C@H](C)N(C)C(=O)/C=C/CN(C)C)c2)nc1N(C)C
6. CCc1nc(C(N)=O)c(Nc2cccc(CCNC(=O)[C@H](C)N(C)C(=O)C#CCN(C)C)c2)nc1C

1. > 9.00
2. > 9.00
3. > 9.00
4. 7.00 to 8.00
5. 6.30 to 7.00
6. 8.00 to 9.00
